Values were extracted from patent US20230286960A1.

# Assayed system: human full length PIK3CA wild-type (p110α/p85α) (Homo sapiens (Human))
# Sequence (P42336 whole entry): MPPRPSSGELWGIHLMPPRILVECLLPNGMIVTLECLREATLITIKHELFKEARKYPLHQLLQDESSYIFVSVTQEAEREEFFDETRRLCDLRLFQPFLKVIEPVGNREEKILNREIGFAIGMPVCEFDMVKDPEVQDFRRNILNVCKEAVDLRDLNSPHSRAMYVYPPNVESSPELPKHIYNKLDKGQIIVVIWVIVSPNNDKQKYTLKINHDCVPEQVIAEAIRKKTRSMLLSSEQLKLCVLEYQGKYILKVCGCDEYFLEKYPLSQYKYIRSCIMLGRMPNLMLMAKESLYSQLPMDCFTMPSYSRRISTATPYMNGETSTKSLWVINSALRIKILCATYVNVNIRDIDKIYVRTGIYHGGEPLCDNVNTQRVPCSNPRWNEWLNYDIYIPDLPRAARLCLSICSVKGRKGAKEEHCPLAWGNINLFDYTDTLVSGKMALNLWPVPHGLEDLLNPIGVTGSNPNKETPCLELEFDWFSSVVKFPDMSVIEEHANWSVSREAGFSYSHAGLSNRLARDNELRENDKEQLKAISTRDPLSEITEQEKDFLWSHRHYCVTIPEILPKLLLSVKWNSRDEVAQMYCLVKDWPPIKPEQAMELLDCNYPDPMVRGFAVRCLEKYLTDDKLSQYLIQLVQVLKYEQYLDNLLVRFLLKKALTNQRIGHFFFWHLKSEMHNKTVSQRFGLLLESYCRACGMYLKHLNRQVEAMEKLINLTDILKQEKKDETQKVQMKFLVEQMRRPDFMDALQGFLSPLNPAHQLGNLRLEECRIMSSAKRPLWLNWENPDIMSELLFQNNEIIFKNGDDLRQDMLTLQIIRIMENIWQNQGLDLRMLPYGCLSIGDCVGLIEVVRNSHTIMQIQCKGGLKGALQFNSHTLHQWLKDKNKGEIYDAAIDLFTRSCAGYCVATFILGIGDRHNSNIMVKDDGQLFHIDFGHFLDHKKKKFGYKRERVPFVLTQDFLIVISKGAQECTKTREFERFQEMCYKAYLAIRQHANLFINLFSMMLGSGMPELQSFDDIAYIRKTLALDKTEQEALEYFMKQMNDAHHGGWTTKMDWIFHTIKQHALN
# Sequence (P27986 whole entry partner): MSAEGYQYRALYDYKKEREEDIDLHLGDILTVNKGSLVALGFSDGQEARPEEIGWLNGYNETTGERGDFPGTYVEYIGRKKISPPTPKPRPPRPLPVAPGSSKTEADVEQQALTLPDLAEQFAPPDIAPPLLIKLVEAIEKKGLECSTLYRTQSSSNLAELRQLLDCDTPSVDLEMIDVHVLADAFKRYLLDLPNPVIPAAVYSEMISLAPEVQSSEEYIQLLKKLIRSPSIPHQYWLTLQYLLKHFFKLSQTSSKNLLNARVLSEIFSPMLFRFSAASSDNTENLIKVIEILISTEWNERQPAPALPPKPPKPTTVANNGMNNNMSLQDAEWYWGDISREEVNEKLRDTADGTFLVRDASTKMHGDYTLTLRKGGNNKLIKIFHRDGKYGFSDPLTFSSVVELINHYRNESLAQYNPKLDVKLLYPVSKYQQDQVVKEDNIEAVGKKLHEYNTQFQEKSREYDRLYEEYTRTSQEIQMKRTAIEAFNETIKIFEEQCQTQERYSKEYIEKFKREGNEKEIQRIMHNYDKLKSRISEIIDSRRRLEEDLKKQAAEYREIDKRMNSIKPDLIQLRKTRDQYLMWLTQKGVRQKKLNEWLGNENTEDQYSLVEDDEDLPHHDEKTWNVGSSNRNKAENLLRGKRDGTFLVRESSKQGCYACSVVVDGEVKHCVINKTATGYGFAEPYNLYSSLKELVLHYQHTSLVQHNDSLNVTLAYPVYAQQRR
# Assay explanation: PI3K-alpha kinase (PIK3CA) activity, wild-type, Transcreener ADP2 FI assay
# Run conditions: PI3K-α (PIK3CA) biochemical
pIC50: −log10 of the molar value.
// values below are reported pIC50

Molecule: Cc1cc([C@@H](C)Nc2ccc(Cl)nc2C(=O)O)c2oc(N3Cc4ccccc4C3)cc(=O)c2c1
pIC50: > 6.30

Molecule: Cc1cc(C(C)Nc2ccccc2C(=O)O)c2oc(NC34CC5CC(CC(CO)(C5)C3)C4)cc(=O)c2c1 (centres unmarked)
pIC50: < 5.00

Molecule: Cc1cc(C(C)Nc2ccccc2C(=O)O)c2oc(N3CC4CCC(C3)O4)cc(=O)c2c1 (centres unmarked)
pIC50: < 5.00

Molecule: Cc1cc([C@@H](C)Nc2ccc(Cl)nc2C(=O)O)c2oc(N3CCC4(CC3)CC4)c(C)c(=O)c2c1
pIC50: > 6.30

Molecule: Cc1cc(C(C)Nc2ccccc2C(=O)O)c2oc(N3CCCC4(CNC(=O)C4)C3)cc(=O)c2c1 (centres unmarked)
pIC50: < 5.00

Molecule: Cc1cc(C(C)Nc2ccccc2C(=O)O)c2oc(N3CCn4cnnc4C3)cc(=O)c2c1 (centres unmarked)
pIC50: < 5.00

Molecule: Cc1cc(C(C)Nc2ccccc2C(=O)O)c2oc(N3CCS(=O)(=O)CC3)cc(=O)c2c1 (centres unmarked)
pIC50: < 5.00

Molecule: CC(Nc1ccc(Cl)nc1C(=O)O)c1cc(F)cc2c(=O)cc(N3Cc4ccccc4C3)oc12 (centres unmarked)
pIC50: > 6.30
